Target: recombinant human KIT tyrosine kinase protein (Homo sapiens (Human))
Sequence (P10721 546-976): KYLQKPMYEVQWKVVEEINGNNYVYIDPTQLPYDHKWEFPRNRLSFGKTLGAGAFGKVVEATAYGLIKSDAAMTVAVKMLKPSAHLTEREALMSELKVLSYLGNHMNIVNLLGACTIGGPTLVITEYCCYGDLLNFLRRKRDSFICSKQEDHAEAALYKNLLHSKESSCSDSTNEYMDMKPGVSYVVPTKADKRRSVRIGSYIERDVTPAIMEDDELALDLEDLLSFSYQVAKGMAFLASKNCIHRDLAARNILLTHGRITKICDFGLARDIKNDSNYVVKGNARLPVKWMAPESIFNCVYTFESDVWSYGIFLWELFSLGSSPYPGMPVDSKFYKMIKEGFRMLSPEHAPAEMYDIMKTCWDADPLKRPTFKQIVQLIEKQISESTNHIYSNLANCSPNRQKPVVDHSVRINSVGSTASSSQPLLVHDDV
Assay: KIT tyrosine kinase assay (ADP-Glo)
Assay type: biochemical
Conditions: Table 98
property_name: IC50

Cn1c(=O)[nH]c2cc(C(=O)NCc3ccc(Oc4cccc(F)c4F)nc3)ccc21 [Example 36]: 50 nM
C[C@H]1CCCN1c1cnc(CNC(=O)c2ccc3c(c2)[nH]c(=O)n3C)cn1 [Example 98]: 71 nM
CC(NC(=O)c1ccc2c(c1)[nH]c(=O)n2C)c1ccc(Oc2ccc(F)cc2F)nc1 (centres unmarked) [Compound 27]: 74 nM
CC(c1ccccc1)N(C)c1ccc(CNC(=O)c2ccc3c(c2)[nH]c(=O)n3C)cn1 (single isomer, unassigned) [82 Peak 1]: 180 nM

Let's switch to this molecule now.
Entry O=C(NCc1ccc(Oc2ccc(F)cc2)nc1)c1ccc2[nH]c(=O)[nH]c2c1 [Example 29] ; IC50 = 56 nM
